# credit: the supplement of paper PMC13380429

system: U2OS; assay: cell viability relative to DMSO; higher = less toxic; settings: 72 h; 10000 nM
METRIC_NAME: cell viability (%)
Number in %, nothing else.

Record excerpt, results attached:
{"columns": ["COMPOUND", "TESTED_ON", "RECORDED_VALUE"],
 "data": [
  ["CC(=O)O[C@]1(C(C)=O)CC[C@H]2[C@@H]3C[C@H](C)C4=CC(=O)CC[C@]4(C)[C@H]3CC[C@@]21C [medroxyprogesterone-acetate]", "U2OS", 96.5],
  ["C=CCNc1nc(NCC=C)nc(N2CCN(C(c3ccc(F)cc3)c3ccc(F)cc3)CC2)n1", "U2OS", 97.9],
  ["Clc1cccc2c1CN(C1=NCCN1)C2", "U2OS", 92.1],
  ["CCCCCCCCCCCCCC[C@@H](O)[C@@H](O)[C@@H](N)CO", "U2OS", 98.3],
  ["CS(=O)(=O)c1ccc(-c2cnc(N)c(C(=O)Nc3ccccc3)n2)cc1", "U2OS", 91.6],
  ["O=C1NCCN1CCN1CCC(c2cn(-c3ccc(F)cc3)c3ccc(Cl)cc23)CC1", "U2OS", 81],
  ["O=C(Nc1ccccc1)N1CCN(c2nc(-c3ccccc3)ns2)CC1", "U2OS", 98.9],
  ["O=C(O)C[C@H](O)C(=O)O", "U2OS", 101]
]}

Then there is this compound:
Query: For the compound "O=C1[C@H]2CCCC[C@H]2C(=O)N1CCCCN1CCN(c2nsc3ccccc23)CC1" , give its measured cell viability value.
Result: 92.8
